Where these numbers come from: patent US4220587A

Exercise: for every item that follows, state its recorded MIC.
Test system: Proteus mirabilis (IFO 3849)
experimental-details: MIC, agar dilution, Proteus mirabilis
Format: cell-based
settings: Proteus mirabilis, IFO3849, 20 h, read-out: Minimum Inhibitory Concentration (MIC)
Method: The compounds of this invention were tested for antibacterial activity according to the following procedure. Nutrient broth and nutrient agar were prepared according to the conventional procedure. […] was used as a vehicle. The stock solution was prepared at 100 μg/ml of the test material in the vehicle. Two-fold dilutions were made with the vehicle and then the diluted stock solution was added to a petri dish and solidified by chilling. […]
Answers are plain numbers, in µg/mL.

Worked examples, 5 molecules total:
CC1(C)S[C@@H]2[C@H](NC(=O)[C@H](NC(=O)[C@H]3CCN3)c3ccc(O)cc3)C(=O)N2[C@H]1C(=O)O; 3.1
CN[C@H](C)C(=O)N[C@@H](C(=O)N[C@@H]1C(=O)N2[C@@H]1SC(C)(C)[C@@H]2C(=O)O)c1ccccc1; 9.3
CC1(C)S[C@@H]2[C@H](NC(=O)[C@H](NC(=O)[C@H]3CCCN3)c3ccccc3)C(=O)N2[C@H]1C(=O)O; 1.5
CN[C@H](C)C(=O)N[C@@H](C(=O)N[C@@H]1C(=O)N2[C@@H]1SC(C)(C)[C@@H]2C(=O)O)c1ccc(O)cc1; 6.2
CC(C)C[C@H](C(=O)N[C@@H](C(=O)N[C@@H]1C(=O)N2[C@@H]1SC(C)(C)[C@@H]2C(=O)O)c1ccccc1)N(C)C(=O)OCc1ccccc1; 100

Lab book: MIC of Cc1ccc(S(=O)(=O)N(C)CC(=O)N[C@@H](C(=O)N[C@@H]2C(=O)N3[C@@H]2SC(C)(C)[C@@H]3C(=O)O)c2ccccc2)cc1 noted as 23
